- Test system: N-acetylhexosamine-dehydrogenase (N-AHDH)
- test.summary: Influence of inhibitor on enzyme activity
- Assay type: biochemical, Pseudomonas sp. No. 53
- experimental.parameters: solution containing 2 mM of metallic ion or inhibitor
So I've got a bunch of molecules here, and I need their Residual activity values.
Give bare numbers, in %.

Some solved entries appear below for comparison.
>  <molecule>
c1cnc2c(c1)ccc1cccnc12

>  <measured.number>
104

$$$$
>  <molecule>
NC(=O)CI [Iodoacetamide]

>  <measured.number>
104

$$$$

Items follow; give Residual activity for each.
1. c1ccc(-c2ccccn2)nc1
2. O=S(=O)([O-])[O-].[Cu+2]
3. [Cl][Hg][Cl]
4. O=S(=O)([O-])[O-].[Zn+2]
5. O=C(O)CN(CCN(CC(=O)O)CC(=O)O)CC(=O)O
6. CCCCCCCCCCCCOS(=O)(=O)O

1: 107; 2: 94; 3: 35; 4: 95; 5: 101; 6: 62

====

- Test system: N-acetylhexosamine-dehydrogenase (N-AHDH)
- test.summary: Action and substrate specificity of the enzyme
- Type: biochemical, Pseudomonas sp. No. 53
- experimental.parameters: in the presence of NAD+
quantity: Action of the enzyme upon the sugar (substrate specificity)

>  <compound>
CC(=O)N[C@H]1C(O)O[C@H](CO)[C@H](O)[C@@H]1O (stereo partly shown)

>  <tested.on>
N-acetylhexosamine-dehydrogenase (N-AHDH)

>  <result>
oxidizes

$$$$
>  <compound>
CC(=O)N[C@H]1C(O)O[C@H](CO)[C@@H](O)[C@@H]1O (stereo partly shown)

>  <tested.on>
N-acetylhexosamine-dehydrogenase (N-AHDH)

>  <result>
oxidizes

$$$$

====

- Test system: N-acetylhexosamine-dehydrogenase (N-AHDH)
- test.summary: Influence of inhibitor on enzyme activity
- Assay type: biochemical, Pseudomonas sp. No. 53
- experimental.parameters: solution containing 2 mM of metallic ion or inhibitor
Exercise: for every item that follows, state its recorded Residual activity.
One number for each entry, in %.

>  <molecule>
[N-]=[N+]=[N-].[Na+] [NaN3]

>  <measured.number>
89

$$$$

Please give Residual activity, item by item, for the list that follows.
1. O=S(=O)([O-])[O-].[Cd+2] [CdSO4]
2. O=S(=O)([O-])[O-].[Mn+2] [MnSO4]

92
96

Each molecule below has a reported value. Please supply its Residual activity.
1. [Ca+2].[Cl-].[Cl-] [CaCl2]
2. O=C(O)c1cc[c]([Hg][Cl])cc1 [PCMB]

[95, 97]
